- Target desc: T1, glucose-dependent insulinotropic peptide (gastric inhibitory polypeptide) receptor (GIPR) (human, UniProt P48546 22-466)
- T1 sequence (looked up): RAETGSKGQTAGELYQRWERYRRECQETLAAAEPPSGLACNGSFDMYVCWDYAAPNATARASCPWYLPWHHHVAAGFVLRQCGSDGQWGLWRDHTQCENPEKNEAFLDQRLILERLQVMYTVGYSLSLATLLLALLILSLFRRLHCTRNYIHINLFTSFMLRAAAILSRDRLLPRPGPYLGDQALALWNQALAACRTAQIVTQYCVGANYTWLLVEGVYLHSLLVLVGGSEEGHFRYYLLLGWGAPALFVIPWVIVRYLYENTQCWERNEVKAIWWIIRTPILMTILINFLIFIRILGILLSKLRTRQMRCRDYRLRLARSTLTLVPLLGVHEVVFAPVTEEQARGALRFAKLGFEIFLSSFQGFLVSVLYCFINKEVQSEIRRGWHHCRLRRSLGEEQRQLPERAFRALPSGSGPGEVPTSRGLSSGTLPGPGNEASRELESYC
- Experiment: cell-based or functional assay
Starred links: 1 amine or outer side, 2 acyl side, 3 side chain; linkers in the order of their positions; H or OH if unused. Non-standard residues stand in square brackets, D forms with d. Groups on a side chain read outwards from the residue. Primed or numbered codes have the meaning given here. No end group written: not given here. *: point of attachment. γGlu = O=C(O)[C@H](CCC(=O)[*:2])N[*:1]; Stearoyl = CCCCCCCCCCCCCCCCCC(=O)*; αMeF = C[C@](N)(Cc1ccccc1)C(=O)O; αMeK = C[C@](N)(CCCCN)C(=O)O; Lauroyl = CCCCCCCCCCCC(=O)*; αMeS = C[C@](N)(CO)C(=O)O; PEG2′ = not defined here; Aib = CC(C)(N)C(=O)O
Measured property: cAMP Primary assay EC50 GIP-R (nM)
Answers are plain numbers, in nM.

- Binder: "H[Aib]EGS[αMeF]TSDV[αMeS]S[αMeF]LEK([PEG2′-PEG2′-γGlu-Stearoyl])EAA[αMeK]E[αMeF]IA[αMeF]VV[αMeK]GG-NH2 [SEQ ID NO 113]"
  Measured property: "cAMP Primary assay EC50 GIP-R"
  Obs value: 25
- Binder: "H[Aib]EGS[αMeF]TSDV[αMeS]S[αMeF]LEGEAAK([PEG2′-PEG2′-PEG2′-Lauroyl])E[αMeF]IA[αMeF]VV[αMeK]GG-NH2 [SEQ ID NO 136]"
  Measured property: "cAMP Primary assay EC50 GIP-R"
  Obs value: 26
- Binder: "H[Aib]EGK([PEG2′-PEG2′-γGlu-Stearoyl])[αMeF]TSDV[αMeS]S[αMeF]LEGEAA[αMeK]E[αMeF]IA[αMeF]VV[αMeK]GG-NH2 [SEQ ID NO 124]"
  Measured property: "cAMP Primary assay EC50 GIP-R"
  Obs value: 25

Let's switch to this binder now.
Field request: cAMP Primary assay EC50 GIP-R | item: H[Aib]EGS[αMeF]TSDV[αMeS]S[αMeF]LK([PEG2′-PEG2′-γGlu-Stearoyl])GEAA[αMeK]E[αMeF]IA[αMeF]VV[αMeK]GG-NH2 [SEQ ID NO 114]
25
